test system: S. Mutans, Strain OMZ-176E; assay: Serial dilution minimum inhibitory concentration (MIC) test, S. mutans; assay type: cell-based; conditions: Streptococcus mutans, half strength brain-heart infusion broth, 37° C, 36 hours
Structures can show the parent of a compound that is named as a salt.
Here, each record is paired with measured MIC data.
Write the number in µg/mL without appending the unit.

compound=CN(CCCNC(=N)NC(=O)Nc1ccc(Cl)cc1)CCCNC(=N)NC(=O)Nc1ccc(Cl)cc1 assayendpoint=MIC recordedvalue=0.625

The record that follows has no MIC shown yet.
Query: Tell me the measured MIC of CC(C)(C)CC(C)(C)NC(=O)NC(=N)NCCCN1CCN(CCCNC(=N)NC(=O)NC(C)(C)CC(C)(C)C)CC1 [dihydrochloride] , please.
Result: 1.25
